I'd be grateful if you could share measured %Inh for these entries.
# System: PLK2
# setup_conditions: concentration: 1 μM, replicates: in singlicate; n = 1;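 further: KINOMEscan kinase panel screen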
Answers are plain numbers, in %.

Example entries and their recorded answers appear below.
| molecule | system_under_test | %Inh / % |
| --- | --- | --- |
| CN1c2ccc(-c3ccc(C(=O)NCCO)cc3)cc2-c2[nH]ncc2S1(=O)=O | PLK2 | 17 |
| C[C@@H]1CCN(C(=O)CO)C[C@@H]1N(C)c1ncnc2[nH]ccc12 | PLK2 | 0 |
| Cl.c1ccc(Cn2ccc3cc(Nc4ncnc5ccccc45)ccc32)cc1 [GW275568] | PLK2 | 0 |
| CC(C)(C)OC(=O)NC1CCCN(c2cc(-c3ccc4c(N)n[nH]c4c3)nc(N)n2)C1 (stereo not shown) [GSK2286096] | PLK2 | 0 |

Fill in %Inh for each of the 7 molecules listed.
1. Oc1ccc2ncnc(Nc3ccc(OCc4ccccc4)cc3)c2c1 [GI262866]
2. C[C@H]1CC[C@@H](C(=O)Nc2ccccc2)CN1c1cc(-c2ccc3c(N)n[nH]c3c2)nc(N)n1 [GSK2283293]
3. Fc1ccc(Nc2nccc(-c3c(-c4ccc(Cl)cc4)nn4ncccc34)n2)cc1F [GW829058]
4. COc1ccc(Nc2nccc(N3CCC(NC(=O)Nc4ccc5c(c4)OCO5)C3)n2)cc1 (stereo not shown) [GSK1379745]
5. Nc1nc(-c2ccccn2)c(-c2ccnc3ccccc23)s1 [GW548057]
6. CC(C)(C)c1ccc(-n2cnc3c(N)ncnc32)cc1 [SKF-97263]
7. CSc1ccc(NC2=C(c3ccccc3Cl)C(=O)NC2=O)cc1 [SB-342411]

[0, 4, 36, 0, 0, 0, 0]

* * *

# System: MKNK1
# setup_conditions: concentration: 1 μM, replicates: in singlicate; n = 1
readout_name: %Inh (%)
Answers are plain numbers, in %.

Reference set, count: 3
| molecule | units_label | %Inh |
| --- | --- | --- |
| COc1ccc(Nc2nccc(N3CCC(NC(=O)Nc4ccc5c(c4)OCO5)C3)n2)cc1 (stereo not shown) [GSK1379745] | % | 21 |
| CSc1ccc(NC2=C(c3ccccc3Cl)C(=O)NC2=O)cc1 [SB-342411] | % | 100 |
| Nc1nc(-c2ccccn2)c(-c2ccnc3ccccc23)s1 [GW548057] | % | 1 |

Here are 3 molecules. What values of %Inh were reported for them?
1. COc1cc2ncnc(Nc3ccc(OCc4ccccc4Br)c(Cl)c3)c2cc1OC.Cl [GI261590]
2. O=C(Nc1ccccc1F)NC1CCN(c2ccnc(Nc3ccc(F)cc3)n2)C1 (stereo not shown) [GSK1379722]
3. Oc1ccc2ncnc(Nc3ccc(OCc4ccccc4)cc3)c2c1 [GI262866]

0
7
0

Please go through the list and note %Inh for each molecule.
1. Cl.c1ccc(Cn2ncc3cc(Nc4ncnc5ccccc45)ccc32)cc1 [GW273749]
2. COc1ccc(NC(=O)Nc2ccc(C)c(-c3ccc(C(=O)Nc4ccncc4)cc3)c2)cc1 [GSK1398475]
3. Cc1ccc(C)c(NC(=O)NCCNc2ccnc(Nc3ccc(F)cc3)n2)c1 [GSK1379878]
4. Cn1ccc2ncnc(Oc3ccc(NC(=O)Nc4cccnc4)c(Cl)c3)c21
5. Nc1n[nH]c2nnc(-c3ccccc3)cc12 [SB-517389]

1: 6; 2: 6; 3: 0; 4: 10; 5: 77

# batch: return %Inh for each of the 2 molecules below
1. Cc1ccc(NC(=O)c2cccc(C#N)c2)cc1-c1ccc(C(=O)Nc2ccncc2)cc1 [GSK1398463]
2. Cl.Cn1ccc(-c2cccc(Nc3ccnc4cc(-c5nccs5)ccc34)c2)n1 [GW525701]

1: 0; 2: 7

Recorded values, source paper PMC5540273.
